Numbers sourced from paper PMC2752341.

- Tested on: MDA-MB-435 human tumor xenografts
- protocol_summary: Human tumor xenograft antitumor bioassay
- Format: in vivo, athymic nude mice
- particulars: Day 35, I.P., MDA-MB-435 xenograft in athymic nude mice
experimental_endpoint: Average tumor volume (mm^3)

[[record]]
smiles_entry = "C#CCN(C)CCn1c(=O)c2cc(OC)c(OC)cc2c2cnc3cc4c(cc3c21)OCO4"
experimental_result = 317

[[record]]
smiles_entry = "COc1cc2c(=O)n(CCN(C)CC(N)=O)c3c4cc5c(cc4ncc3c2cc1OC)OCO5"
experimental_result = 344

[[record]]
smiles_entry = "CCN(CCn1c(=O)c2cc(OC)c(OC)cc2c2cnc3cc4c(cc3c21)OCO4)CC(F)(F)F"
experimental_result = 435

[[record]]
smiles_entry = "CCN(CC#N)CCn1c(=O)c2cc(OC)c(OC)cc2c2cnc3cc4c(cc3c21)OCO4"
experimental_result = 293

[[record]]
smiles_entry = "C#CCN(CCn1c(=O)c2cc(OC)c(OC)cc2c2cnc3cc4c(cc3c21)OCO4)C(C)C"
experimental_result = 234


----------
- Test system: MDA-MB-435 human tumor xenografts
- protocol_summary: Human tumor xenograft antitumor bioassay
- Type: in vivo, athymic nude mice
- particulars: Day 7, I.P., MDA-MB-435 xenograft in athymic nude mice
experimental_endpoint: Average tumor volume (mm^3)

[[record]]
smiles_entry = "C#CCN(CCn1c(=O)c2cc(OC)c(OC)cc2c2cnc3cc4c(cc3c21)OCO4)C(C)C"
tgt = "MDA-MB-435 human tumor xenografts"
experimental_result = 99

[[record]]
smiles_entry = "COc1cc2c(=O)n(CCN(C)CC(N)=O)c3c4cc5c(cc4ncc3c2cc1OC)OCO5"
tgt = "MDA-MB-435 human tumor xenografts"
experimental_result = 147

[[record]]
smiles_entry = "C#CCN(CC)CCn1c(=O)c2cc(OC)c(OC)cc2c2cnc3cc4c(cc3c21)OCO4"
tgt = "MDA-MB-435 human tumor xenografts"
experimental_result = 115

[[record]]
smiles_entry = "C#CCN(C)CCn1c(=O)c2cc(OC)c(OC)cc2c2cnc3cc4c(cc3c21)OCO4"
tgt = "MDA-MB-435 human tumor xenografts"
experimental_result = 144

[[record]]
smiles_entry = "COc1cc2c(=O)n(CCN(C)CC#N)c3c4cc5c(cc4ncc3c2cc1OC)OCO5"
tgt = "MDA-MB-435 human tumor xenografts"
experimental_result = 149

[[record]]
smiles_entry = "COc1cc2c(=O)n(CCN(CC#N)C(C)C)c3c4cc5c(cc4ncc3c2cc1OC)OCO5"
tgt = "MDA-MB-435 human tumor xenografts"
experimental_result = 142

[[record]]
smiles_entry = "COc1cc2c(=O)n(CCN(C)C)c3c4cc5c(cc4ncc3c2cc1OC)OCO5"
tgt = "MDA-MB-435 human tumor xenografts"
experimental_result = 120

[[record]]
smiles_entry = "CCN(CC#N)CCn1c(=O)c2cc(OC)c(OC)cc2c2cnc3cc4c(cc3c21)OCO4"
tgt = "MDA-MB-435 human tumor xenografts"
experimental_result = 100

[[record]]
smiles_entry = "CCN(CCn1c(=O)c2cc(OC)c(OC)cc2c2cnc3cc4c(cc3c21)OCO4)CC(F)(F)F"
tgt = "MDA-MB-435 human tumor xenografts"
experimental_result = 127


----------
- Tested on: MDA-MB-435 human tumor xenografts
- protocol_summary: Human tumor xenograft antitumor bioassay
- Assay type: in vivo, athymic nude mice
- particulars: Day 35, I.P., MDA-MB-435 xenograft in athymic nude mice
experimental_endpoint: Average tumor volume (mm^3)

[[record]]
molecule = "COc1cc2c(=O)n(CCN(CC#N)C(C)C)c3c4cc5c(cc4ncc3c2cc1OC)OCO5 [Compound 12]"
unit_abbrev = "mm^3"
experimental_result = 250

[[record]]
molecule = "C#CCN(CC)CCn1c(=O)c2cc(OC)c(OC)cc2c2cnc3cc4c(cc3c21)OCO4 [Compound 14]"
unit_abbrev = "mm^3"
experimental_result = 331

[[record]]
molecule = "COc1cc2c(=O)n(CCN(C)CC#N)c3c4cc5c(cc4ncc3c2cc1OC)OCO5 [Compound 10]"
unit_abbrev = "mm^3"
experimental_result = 528

[[record]]
molecule = "COc1cc2c(=O)n(CCN(C)C)c3c4cc5c(cc4ncc3c2cc1OC)OCO5 [Compound 1]"
unit_abbrev = "mm^3"
experimental_result = 175

